Source of measurements: patent EP1290011B1

Property: pIC50; scope: individual compounds
- System: H69
- Assay summary: cells
- Type: cell-based, human
- Test parameters: H69, small cell lung cancer; 72 hours incubation; read-out: IC50
Where a name gives a salt, the structure may show the parent alone.
# pIC50: negative log10 of molar concentration; output just the value

Compound: O=c1[nH]cc(F)c(=O)[nH]1 [Example 5-FU, 5-FU, reference compound]
pIC50: 3.11

Lookup: # return pIC50 of CCOC(=O)[C@H](Cc1ccc([N+](=O)[O-])cc1)NC(=O)[C@@H](N)Cc1ccc(N(CCCl)CCCl)cc1 [JV26, hydrochloride] (system: H69)
Found: 7.22

Lookup: Return reported pIC50 for target or system H69, item CCOC(=O)[C@H](Cc1ccc(OC)cc1)NC(=O)[C@@H](N)Cc1ccc(N(CCCl)CCCl)cc1 [JV25, hydrochloride] .
Found: 7.40

Lookup: State pIC50 on H69. Entry: CCOC(=O)[C@H](Cc1ccc(N)cc1)NC(=O)[C@@H](N)Cc1ccc(N(CCCl)CCCl)cc1 [JV29, hydrochloride]
Found: 7.05
